Values compiled from patent US6004948A.

- Test Target: Human COX-2 (Homo sapiens, UniProt P35354)
- Construct: endogenous in cells
- Sequence (P35354 18-604): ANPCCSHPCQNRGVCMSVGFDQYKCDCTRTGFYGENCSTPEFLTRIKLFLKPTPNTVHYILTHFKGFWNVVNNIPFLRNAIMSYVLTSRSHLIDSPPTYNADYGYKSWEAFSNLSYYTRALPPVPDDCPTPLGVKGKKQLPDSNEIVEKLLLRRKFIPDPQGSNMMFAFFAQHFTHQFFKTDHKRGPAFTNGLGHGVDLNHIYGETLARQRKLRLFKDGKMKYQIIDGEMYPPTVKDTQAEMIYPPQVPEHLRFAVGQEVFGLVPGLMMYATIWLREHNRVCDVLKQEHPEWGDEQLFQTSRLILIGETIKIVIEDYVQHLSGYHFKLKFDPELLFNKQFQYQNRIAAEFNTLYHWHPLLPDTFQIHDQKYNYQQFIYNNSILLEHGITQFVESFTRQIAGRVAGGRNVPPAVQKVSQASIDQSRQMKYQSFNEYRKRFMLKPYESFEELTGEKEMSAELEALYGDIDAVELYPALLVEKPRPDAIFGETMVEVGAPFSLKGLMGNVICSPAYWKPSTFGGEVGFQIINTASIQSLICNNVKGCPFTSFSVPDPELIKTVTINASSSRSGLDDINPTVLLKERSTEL
- Protocol Details: Human COX-2 test (LPS-stimulated human monocytoid cell line, arachidonic acid, cyclooxygenase products by ELISA)
- Format: cell-based
- Reported Conditions: selectivity obtained from the two tests, ratio of COX I IC50 to COX II IC50
- Procedure: Cells from a human monocytoid cell line are stimulated with LPS (incubator at 37° C., 5% CO2 -enriched atmosphere and approximately 100% relative humidity), in order to induce COX-2. […] The culture supernatant of the cells was removed and its content of products of cyclooxygenase metabolism (such as prostaglandin E2, prostaglandin F1a and thromboxane B2) was measured by ELISA.
Below, each entry is listed with its recorded COX I/COX II.
I only need the number, thanks.

Example compounds with recorded COX I/COX II:
CS(=O)(=O)Nc1ccc(S(N)(=O)=O)cc1Sc1ccc(Cl)cc1; 353
CS(=O)(=O)Nc1ccc(S(N)(=O)=O)cc1Sc1ccc(F)cc1Cl; 73
CS(=O)(=O)Nc1ccc(S(N)(=O)=O)cc1Sc1ccc(F)cc1F; 260

Here is another compound to look at.
// Input: CS(=O)(=O)Nc1ccc(S(N)(=O)=O)cc1Sc1ccc(Cl)cc1Cl . Output its COX I/COX II only.
1000

---

- Test Target: Human COX-2 (Homo sapiens, UniProt P35354)
- Construct: endogenous in cells
- Protocol Details: Human COX-2 test (LPS-stimulated human monocytoid cell line, arachidonic acid, cyclooxygenase products by ELISA)
- Reported Conditions: human monocytoid cell line, LPS-stimulated; half an hour pre-incubation, arachidonic acid 15 minutes, ELISA; read-out: COX II IC50
Parameter Measured: IC50 (nM)
// units = nM; emit number, no label

CS(=O)(=O)Nc1ccc(S(N)(=O)=O)cc1Sc1ccccc1Cl; 170
CS(=O)(=O)Nc1ccc(S(N)(=O)=O)cc1Oc1ccc(Cl)cc1Cl; 100
CS(=O)(=O)Nc1cc2c(cc1Oc1ccccc1)S(=O)(=O)NC2; 110
CS(=O)(=O)Nc1ccc(S(N)(=O)=O)cc1Sc1ccc(Cl)cc1; 170
CS(=O)(=O)Nc1ccc(S(N)(=O)=O)cc1Sc1ccc(F)cc1Cl; 150
CS(=O)(=O)Nc1ccc(S(N)(=O)=O)cc1Sc1ccc(Br)cc1; 270
CS(=O)(=O)Nc1ccc(S(N)(=O)=O)cc1Sc1ccc(F)cc1F; 200
CS(=O)(=O)Nc1ccc(S(N)(=O)=O)cc1Sc1ccc(Cl)cc1Cl; 27

Here is another compound to look at.
Provide measured IC50 on Human COX-2 (Homo sapiens, UniProt P35354) for CS(=O)(=O)Nc1ccc(S(N)(=O)=O)cc1SC1CCCCC1 please.
540

---

- Test Target: Human COX 1 (Homo sapiens)
- Construct: arachidonic acid-induced aggregation of washed human thrombocytes; endogenous in cells
- Sequence (P23219 24-599): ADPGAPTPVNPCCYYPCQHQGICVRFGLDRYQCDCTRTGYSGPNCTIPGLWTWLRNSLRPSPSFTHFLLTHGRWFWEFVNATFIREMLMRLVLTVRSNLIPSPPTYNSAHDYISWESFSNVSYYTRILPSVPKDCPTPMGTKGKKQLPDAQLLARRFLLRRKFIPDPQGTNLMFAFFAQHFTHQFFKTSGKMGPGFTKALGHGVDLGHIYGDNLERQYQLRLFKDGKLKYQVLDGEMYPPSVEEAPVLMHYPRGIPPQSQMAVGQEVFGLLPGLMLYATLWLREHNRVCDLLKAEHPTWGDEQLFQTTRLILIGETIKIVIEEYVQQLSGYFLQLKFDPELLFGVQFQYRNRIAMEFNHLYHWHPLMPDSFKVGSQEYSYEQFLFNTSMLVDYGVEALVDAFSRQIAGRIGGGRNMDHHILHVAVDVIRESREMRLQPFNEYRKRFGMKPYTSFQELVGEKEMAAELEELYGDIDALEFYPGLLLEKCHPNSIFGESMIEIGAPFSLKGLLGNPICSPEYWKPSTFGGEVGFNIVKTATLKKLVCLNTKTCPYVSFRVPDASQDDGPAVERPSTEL
- Protocol Details: Human COX 1 test (arachidonic acid-induced aggregation of washed human thrombocytes)
- Reported Conditions: arachidonic acid 10 μM, 37° C., substance added 2 minutes before, read-out: COX I IC50
Parameter Measured: pIC50
Here pIC50 is given on a logarithmic scale as minus log10 of the concentration in mol/L.

Example compounds with recorded pIC50:
CS(=O)(=O)Nc1ccc(S(N)(=O)=O)cc1Sc1ccc(F)cc1F [Example 6]; 4.28
CS(=O)(=O)Nc1ccc(S(N)(=O)=O)cc1Sc1ccc(Cl)cc1Cl [Example 7]; 4.57
CS(=O)(=O)Nc1ccc(S(N)(=O)=O)cc1Sc1ccc(F)cc1Cl [Example 8]; 4.96

Here is another compound to look at.
// Input: CS(=O)(=O)Nc1ccc(S(N)(=O)=O)cc1Sc1ccc(Cl)cc1 [Example 17] . Output its pIC50 only.
4.22

---

Below, each entry is listed with its recorded COX I/COX II.
- Test Target: Human COX-2 (Homo sapiens, UniProt P35354)
- Construct: endogenous in cells
- Protocol Details: Human COX-2 test (LPS-stimulated human monocytoid cell line, arachidonic acid, cyclooxygenase products by ELISA)
- Format: cell-based
- Reported Conditions: selectivity obtained from the two tests, ratio of COX I IC50 to COX II IC50

Example compounds with recorded COX I/COX II:
CS(=O)(=O)Nc1ccc(S(N)(=O)=O)cc1Sc1ccccc1Cl; ≥ 196
CS(=O)(=O)Nc1cc2c(cc1Oc1ccccc1)S(=O)(=O)NC2; ≥ 450
CS(=O)(=O)Nc1ccc(S(N)(=O)=O)cc1Oc1ccc(Cl)cc1Cl; ≥ 500
CS(=O)(=O)Nc1ccc(S(N)(=O)=O)cc1Sc1ccc(Br)cc1; ≥ 253

Here is another compound to look at.
// Input: CS(=O)(=O)Nc1ccc(S(N)(=O)=O)cc1SC1CCCCC1 . Output its COX I/COX II only.
≥ 110

---

- Test Target: Human COX 1 (Homo sapiens)
- Construct: arachidonic acid-induced aggregation of washed human thrombocytes; endogenous in cells
- Protocol Details: Human COX 1 test (arachidonic acid-induced aggregation of washed human thrombocytes)
- Reported Conditions: arachidonic acid 10 μM, 37° C., substance added 2 minutes before, read-out: COX I IC50
Parameter Measured: IC50

Example molecules with recorded IC50:
CS(=O)(=O)Nc1ccc(S(N)(=O)=O)cc1SC1CCCCC1 [Example 19]; ≥ 60 µM
CS(=O)(=O)Nc1cc2c(cc1Oc1ccccc1)S(=O)(=O)NC2 [Example 4]; ≥ 45 µM

// Input: CS(=O)(=O)Nc1ccc(S(N)(=O)=O)cc1Sc1ccccc1Cl [Example 25] . Output its IC50 only.
≥ 35 µM

// Input: CS(=O)(=O)Nc1ccc(S(N)(=O)=O)cc1Oc1ccc(Cl)cc1Cl [Example 1] . Output its IC50 only.
≥ 50 µM

// Input: CS(=O)(=O)Nc1ccc(S(N)(=O)=O)cc1Sc1ccc(Br)cc1 [Example 26] . Output its IC50 only.
≥ 70 µM
